# mean geometric MIC, Vancomycin Sensitive Strains listing for each entry below
# Test system: vancomycin-susceptible enterococci
# experiment: broth micro-dilution, mean geometric MIC
# Type: cell-based, Enterococcus faecium and Enterococcus faecalis
# condition.parameters: enterococci, 24-hour incubation
Please provide the amount together with its unit, number first.

Example entries begin here.
CNC(CC(C)C)C(=O)NC1C(=O)NC(CC(N)=O)C(=O)NC2C(=O)NC3C(=O)NC(C(=O)NC(C(=O)O)c4cc(O)cc(O)c4-c4cc3ccc4O)C(OC3CC(C)(N)C(O)C(C)O3)c3ccc(c(Cl)c3)Oc3cc2cc(c3OC2OC(CO)C(O)C(O)C2OC2CC(C)(NCc3ccc(O)cc3)C(O)C(C)O2)Oc2ccc(cc2Cl)C1O (stereo not drawn) [Compound 136]    0.76 µg/mL
CNC(CC(C)C)C(=O)NC1C(=O)NC(CC(N)=O)C(=O)NC2C(=O)NC3C(=O)NC(C(=O)NC(C(=O)O)c4cc(O)cc(O)c4-c4cc3ccc4O)C(OC3CC(C)(N)C(O)C(C)O3)c3ccc(c(Cl)c3)Oc3cc2cc(c3OC2OC(CO)C(O)C(O)C2OC2CC(C)(NCc3ccc(-c4ccc(F)cc4)cc3)C(O)C(C)O2)Oc2ccc(cc2Cl)C1O (stereo not drawn) [Compound 211]    0.024 µg/mL
CC(C)CC(C(=O)NC1C(=O)NC(CC(N)=O)C(=O)NC2C(=O)NC3C(=O)NC(C(=O)NC(C(=O)O)c4cc(O)cc(O)c4-c4cc3ccc4O)C(OC3CC(C)(N)C(O)C(C)O3)c3ccc(c(Cl)c3)Oc3cc2cc(c3OC2OC(CO)C(O)C(O)C2OC2CC(C)(NCc3cc4ccccc4s3)C(O)C(C)O2)Oc2ccc(cc2Cl)C1O)N(C)Cc1cc2ccccc2s1 (stereo not drawn) [Compound 276]    1.3 µg/mL
CN[C@H](CC(C)C)C(=O)N[C@H]1C(=O)N[C@@H](CC(N)=O)C(=O)N[C@H]2C(=O)N[C@H]3C(=O)N[C@H](C(=O)N[C@H](C(=O)O)c4cc(O)cc(O)c4-c4cc3ccc4O)[C@H](O[C@H]3C[C@](C)(N)[C@@H](O)[C@H](C)O3)c3ccc(c(Cl)c3)Oc3cc2cc(c3O[C@@H]2O[C@H](CO)[C@@H](O)[C@H](O)[C@H]2O[C@H]2C[C@](C)(NCc3cccc(-c4ccccc4)c3)[C@@H](O)[C@H](C)O2)Oc2ccc(cc2Cl)[C@H]1O [Compound 91]    0.11 µg/mL
CNC(CC(C)C)C(=O)NC1C(=O)NC(CC(N)=O)C(=O)NC2C(=O)NC3C(=O)NC(C(=O)NC(C(=O)O)c4cc(O)cc(O)c4-c4cc3ccc4O)C(OC3CC(C)(N)C(O)C(C)O3)c3ccc(c(Cl)c3)Oc3cc2cc(c3OC2OC(CO)C(O)C(O)C2OC2CC(C)(NCCCCCCc3ccccc3)C(O)C(C)O2)Oc2ccc(cc2Cl)C1O (stereo not drawn) [Compound 196]    0.027 µg/mL

Request: For the compound COc1cc(CNC2(C)CC(OC3C(Oc4c5cc6cc4Oc4ccc(cc4Cl)C(OC4CC(C)(N)C(O)C(C)O4)C4NC(=O)C(NC(=O)C6NC(=O)C(CC(N)=O)NC(=O)C(NC(=O)C(CC(C)C)N(C)Cc6ccc(OCc7ccccc7)c(OC)c6)C(O)c6ccc(c(Cl)c6)O5)c5ccc(O)c(c5)-c5c(O)cc(O)cc5C(C(=O)O)NC4=O)OC(CO)C(O)C3O)OC(C)C2O)ccc1OCc1ccccc1 (stereo not drawn) [Compound 268] , report mean geometric MIC, Vancomycin Sensitive Strains.
Result: 0.87 µg/mL

Hey, just so you know, these numbers are from patent US5840684A.
